Hi there, I'd appreciate the recorded cell viability for every entry that follows.
test system: Caco-2; assay: cell viability relative to DMSO; higher = less toxic; settings: 72 h; 1 nM
One number for each entry, in %.

COMPOUND | cell viability / %
Cc1c(Cn2c(C)nc3c(C(=O)O)cc(N4CCOCC4)cc32)cccc1C(F)(F)F | 102
COc1cc(/C=C/C(=O)N2CCN(CC(=O)N3CCCC3)CC2)cc(OC)c1OC [cinepazide] | 96.4
CN(C)C/C=C(/c1ccc(Br)cc1)c1cccnc1 | 100
C[C@@H](O)[C@H]1C(=O)N2C(C(=O)O)=C(S[C@@H]3CN[C@H](CNS(N)(=O)=O)C3)[C@H](C)[C@H]12 | 103
Cc1cccc(C)c1NC(=O)[C@@H](C)N [tocainide] | 96.8
O=C(O)CCC(=O)Nc1ccc(S(=O)(=O)Nc2nccs2)cc1 | 93.9
C=CCN1CC[C@]23c4c5ccc(O)c4O[C@H]2[C@@H](OCCOCCOCCOCCOCCOCCOCCOC)CC[C@@]3(O)[C@H]1C5 | 107

API: the following record is the query input.
Which cell viability reading was recorded for the compound "COc1cc2c(Oc3ccc(NC(=O)C4(C(=O)Nc5ccc(F)cc5)CC4)cc3F)ccnc2cc1OCCCN1CCOCC1" ?
102
